Test system: SK-MEL-5
METHOD_DESCRIPTION: NCI tumour cell line growth inhibition, 48 h
The source made the active and inactive calls. No stated cut-off is given here; in the data, active = GI50 up to about 1.1 µM and inactive = higher.
Lab note: assign the record to one of true for active, false for inactive

C=CCn1c(N)c(C#N)c(C#N)c1-c1ccccc1 :: false

**Q:** Short answer needed: outcome of this test for `O=C(O)/C=C\C(=O)Nn1c(Cc2ccc(Cl)cc2)n[nH]c1=O` ?
**A:** false

**Q:** Short answer needed: outcome of this test for `CC(=O)NNc1nc(C)c(C(=O)NNC(=O)C(=O)Nc2ccc(C)cc2[N+](=O)[O-])s1` ?
**A:** false

**Q:** Short answer needed: outcome of this test for `CC(=O)O[C@H]1C(=O)[C@@]2(C)[C@H]([C@H](OC(=O)c3ccccc3)[C@]3(O)C[C@H](OC(=O)[C@H](O)[C@@H](NC(=O)c4ccccc4)c4ccccc4)C(C)=C1C3(C)C)[C@]1(OC(C)=O)CO[C@@H]1C[C@@H]2O` ?
**A:** true

**Q:** Short answer needed: outcome of this test for OC1(c2ccc3ccccc3c2)c2c(c3ccccc3c3ccccc23)C2=NCCN21 (centres undefined) ?
**A:** false

**Q:** Short answer needed: outcome of this test for COC(=O)[C@H](CC(C)C)NC(=O)[C@H](Cc1ccccc1)N1CC2C=CC1C2 (some centres undefined) ?
**A:** false

**Q:** Short answer needed: outcome of this test for `Cc1ccc(-c2c(C#N)c(-c3ccc(C)cc3)n(NS(=O)(=O)c3ccccc3)c(=O)c2C#N)cc1` ?
**A:** false

**Q:** Short answer needed: outcome of this test for `Cc1c2cc[n+](Cc3ccc(I)cc3)cc2c(C)c2c1[nH]c1ccccc12` ?
**A:** true

**Q:** Short answer needed: outcome of this test for `O=C1C(Br)=C(C2=CC(=P(c3ccccc3)(c3ccccc3)c3ccccc3)C=C2)C(=O)C(Br)=C1C1=CC(=P(c2ccccc2)(c2ccccc2)c2ccccc2)C=C1` ?
**A:** false

**Q:** Short answer needed: outcome of this test for Nc1ccc(C(=O)NN2C(=O)[C@H](Cl)C2c2ccc(Cl)cc2)cc1 (some centres undefined) ?
**A:** false

**Q:** Short answer needed: outcome of this test for `COc1ccc(C(=O)Cc2ccc(Cl)cc2)cc1OC` ?
**A:** false

**Q:** Short answer needed: outcome of this test for `O=C1C(NS(=O)(=O)c2ccccc2)=C(n2cnc3ccccc32)C(=O)c2ccccc21` ?
**A:** false

**Q:** Short answer needed: outcome of this test for `CO/C=C1\OC(=O)C=C1OC` ?
**A:** false

**Q:** Short answer needed: outcome of this test for C=C1CC2CC(O)CC(C1)C2 (centres undefined) ?
**A:** false

**Q:** Short answer needed: outcome of this test for `CCOC(=O)/C(=C\c1ccc(C#N)cc1)C(C)=O` ?
**A:** false

**Q:** Short answer needed: outcome of this test for `CC(C)c1ccc(/C(C(=O)O)=C(\O)C(=O)O)cc1` ?
**A:** false

**Q:** Short answer needed: outcome of this test for `C=CCc1cc(-c2cc(CC=C)c(O)c(CN(CC)CC)c2)cc(CN(CC)CC)c1O` ?
**A:** false

**Q:** Short answer needed: outcome of this test for `CC(C)CCC(=O)c1ccoc1` ?
**A:** false
